Listing of entries alongside the reported IC50.
Target: ASK1 (Apoptosis Signal-Regulating Kinase 1) (Homo sapiens (Human))
Sequence (Q99683 649-946): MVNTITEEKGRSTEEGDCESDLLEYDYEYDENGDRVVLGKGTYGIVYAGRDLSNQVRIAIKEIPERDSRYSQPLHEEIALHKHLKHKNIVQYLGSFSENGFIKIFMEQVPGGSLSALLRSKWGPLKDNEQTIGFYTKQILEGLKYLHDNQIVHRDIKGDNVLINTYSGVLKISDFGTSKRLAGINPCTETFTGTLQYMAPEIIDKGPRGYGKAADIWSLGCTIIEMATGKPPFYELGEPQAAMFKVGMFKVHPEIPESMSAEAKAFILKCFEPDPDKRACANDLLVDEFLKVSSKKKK
Experiment: ASK1 (Apoptosis Signal-Regulating Kinase 1) TR-FRET Kinase Assay (Biochemical IC50)
Conditions: TR-FRET, biotin-MBP substrate, 20 min pre-incubation, ATP added as 300 μM solution

- Molecule: "CC(O)[C@@H](C)n1cnnc1-c1cccc(NC(=O)c2cc(-c3ccc(C4CC4)nc3)ccn2)n1 (stereo partly drawn)"
  IC50 (nM): 7
- Molecule: "O=C(Nc1cccc(-c2nncn2C2CC2)n1)c1cc(-c2ccc(C3CC3)nc2)c(Cl)cc1F"
  IC50 (nM): 27
- Molecule: "O=C(Nc1cccc(-c2cncn2C2CC2)c1)c1cc(-n2cnc3ccccc32)ccn1"
  IC50 (nM): 35
- Molecule: "O=C(Nc1cccc(-c2nncn2C2CC2)n1)c1cc(-n2cnc(C3CC3)n2)ccn1"
  IC50 (nM): 14
- Molecule: "Cc1ccc(C(=O)Nc2cccc(-c3nncn3C3CC3)n2)cc1-n1cnc(C2CC2)c1"
  IC50 (nM): 11
- Molecule: "CC(C)(O)c1ccc(-c2cccc(C(=O)Nc3cccc(-c4nncn4C4CC4)n3)c2)cn1"
  IC50 (nM): 17

Every entry's value here was drawn from patent USRE48711E1.
